target: IGF1R (Homo sapiens, UniProt P08069); construct: endogenous in cells; experiment: Inhibition of IGF-1R (IC50): IGF1-stimulated IGF1R autophosphorylation in human tumour cells, Capture-ELISA or LUMINEX; format: cell-based; settings: human tumour cells expressing IGF1R (for example MCF-7 or Calu-6); 45 min pre-treatment, IGF1 stimulation 5 min; read-out: IC50 (μM), IGF1R
Sequence (P08069 31-1367): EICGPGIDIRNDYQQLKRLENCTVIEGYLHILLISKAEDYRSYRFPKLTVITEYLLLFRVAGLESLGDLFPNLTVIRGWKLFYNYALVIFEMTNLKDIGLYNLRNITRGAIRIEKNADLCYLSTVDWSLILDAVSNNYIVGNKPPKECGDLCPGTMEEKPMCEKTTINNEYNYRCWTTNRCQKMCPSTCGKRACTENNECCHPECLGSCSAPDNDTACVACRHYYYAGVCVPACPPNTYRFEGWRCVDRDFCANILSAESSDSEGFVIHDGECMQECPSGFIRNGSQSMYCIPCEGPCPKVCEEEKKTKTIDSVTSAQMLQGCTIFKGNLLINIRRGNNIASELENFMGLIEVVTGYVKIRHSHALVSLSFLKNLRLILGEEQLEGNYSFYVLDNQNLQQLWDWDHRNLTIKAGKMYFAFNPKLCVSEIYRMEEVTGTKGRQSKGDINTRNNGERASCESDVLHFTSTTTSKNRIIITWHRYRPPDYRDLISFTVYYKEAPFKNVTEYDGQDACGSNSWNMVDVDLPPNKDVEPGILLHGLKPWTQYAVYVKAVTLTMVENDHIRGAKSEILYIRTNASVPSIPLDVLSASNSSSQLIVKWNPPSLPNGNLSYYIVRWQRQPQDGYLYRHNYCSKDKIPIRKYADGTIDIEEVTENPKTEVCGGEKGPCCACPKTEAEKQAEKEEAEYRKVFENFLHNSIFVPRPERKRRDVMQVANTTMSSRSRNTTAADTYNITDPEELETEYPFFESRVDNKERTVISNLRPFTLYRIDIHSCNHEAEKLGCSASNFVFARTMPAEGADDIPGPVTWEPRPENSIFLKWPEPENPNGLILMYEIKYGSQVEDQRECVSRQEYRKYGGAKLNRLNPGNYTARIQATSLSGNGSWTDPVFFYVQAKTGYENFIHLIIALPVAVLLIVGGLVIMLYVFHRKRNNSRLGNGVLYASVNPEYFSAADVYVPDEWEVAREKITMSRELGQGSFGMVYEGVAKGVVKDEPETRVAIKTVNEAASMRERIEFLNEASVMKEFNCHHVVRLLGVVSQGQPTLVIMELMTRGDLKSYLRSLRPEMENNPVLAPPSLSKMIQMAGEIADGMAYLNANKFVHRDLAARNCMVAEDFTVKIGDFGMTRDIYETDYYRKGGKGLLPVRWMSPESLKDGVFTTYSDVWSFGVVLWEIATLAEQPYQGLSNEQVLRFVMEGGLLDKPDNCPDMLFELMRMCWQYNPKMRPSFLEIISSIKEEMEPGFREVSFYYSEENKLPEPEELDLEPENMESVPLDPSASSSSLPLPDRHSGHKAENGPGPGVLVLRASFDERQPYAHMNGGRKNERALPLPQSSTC
Assay Readout: IC50 (µM)

>>> endpoint_value("COc1cccc(-c2cc3c(NCc4ccccc4)ccnc3[nH]2)c1")
10
>>> endpoint_value("COc1ccc(CNc2ccnc3[nH]c(-c4ccc(OC)cc4)cc23)cc1")
11
>>> endpoint_value("NCCCCCn1cc(-c2cccc(OCc3ccccc3)c2)c2c(N)nccc21")
5.7

[1] NCCCn1cc(-c2cccc(OCc3ccccc3)c2)c2c(N)nccc21
[2] COc1ccc(Nc2ccnc3[nH]c(-c4cc(OC)c(OC)c(OC)c4)cc23)cc1N1CCN(C)CC1
# input Identify the item whose IC50 is the smaller number: 1 or 2 Lab note: record the label of whichever item you select.
# output 2

----------
// reported melting point per item

>>> endpoint_value("COc1cccc(-c2c[nH]c3ccnc(Nc4cccnc4)c23)c1 [Compound 63]")
"177 to 178 °C"
>>> endpoint_value("COc1cccc(-c2cn(CCNC(=O)c3ccccc3C(=O)O)c3cc(Cl)ncc23)c1 [Compound 78]")
"160 °C (dec.)"
>>> endpoint_value("COc1cccc(-c2c[nH]c3ccnc(Nc4ccccn4)c23)c1 [Compound 53]")
"> 299 °C"
>>> endpoint_value("COc1cccc(-c2cn(CCCNC(=O)c3ccccc3C(=O)O)c3ccnc(Cl)c23)c1 [Compound 50]")
"122 to 124 °C"
>>> endpoint_value("COc1cccc(-c2c([Si](C)(C)C)[nH]c3ccnc(Cl)c23)c1")
"137 °C"

Now for a further compound.
# input # melting point lookup, item c1ccc(COc2cccc(-c3cc4cnccc4[nH]3)c2)cc1 [Compound 70]
# output 168 to 170 °C

----------
// reported melting point per item
Where a name gives a salt, the structure may show the parent alone.

Example cases with answers are listed next.
>>> endpoint_value("COc1cccc(-c2cn(CCCCN3C(=O)c4ccccc4C3=O)c3ccnc(N)c23)c1 (as salt: TFA)")
"188 to 189 °C"
>>> endpoint_value("COc1cc(-c2cc3c(Nc4cccc(F)c4)ccnc3[nH]2)cc(OC)c1OC")
"80 to 81 °C"
>>> endpoint_value("COc1cccc(-c2cn(CCCNC(=O)c3ccccc3C(=O)O)c3cc(Cl)ncc23)c1")
"100 to 101 °C"
>>> endpoint_value("COc1cc(-c2cc3c(NCc4cccnc4)ccnc3[nH]2)cc(OC)c1OC (as salt: hydrochloride) (hydrate or solvate)")
"181.5 to 183 °C"
>>> endpoint_value("COc1cccc(-c2c[nH]c3ccnc(NCc4cccnc4)c23)c1")
"80 °C (dec.)"
>>> endpoint_value("COc1cccc(-c2cn(CCCCN)c3ccnc(N)c23)c1 (as salt: TFA)")
"50 °C"
>>> endpoint_value("Fc1cccc(Nc2ccnc3[nH]c(-c4cccc(OCCCc5ccccc5)c4)cc23)c1 (as salt: HCl)")
"210 to 211.5 °C"
>>> endpoint_value("COc1cc(-c2cc3c(Nc4cccc(C#N)c4)ccnc3[nH]2)cc(OC)c1OC (as salt: hydrochloride) (hydrate or solvate)")
"291 to 292.5 °C"
>>> endpoint_value("C#CCCCCNc1ccnc2[nH]c(-c3ccc(OC)cc3)cc12 (as salt: hydrochloride) (hydrate or solvate)")
"118 to 120 °C"
>>> endpoint_value("c1ccc(CCCOc2cccc(-c3cc4cccnc4[nH]3)c2)cc1")
"128 to 129 °C"

# input # melting point lookup, item COc1cccc(-c2cn(CCN3C(=O)c4ccccc4C3=O)c3ccnc(Cl)c23)c1 (as salt: TFA)
# output 130 °C (dec.)

# input # melting point lookup, item `Clc1nccc2[nH]cc(-c3cccc(OCc4ccccc4)c3)c12`
# output 156 to 158 °C

# input # melting point lookup, item COc1ccc(Nc2ccnc3[nH]c(-c4cc(OC)c(OC)c(OC)c4)cc23)cc1N1CCN(C)CC1 (as salt: hydrochloride) (hydrate or solvate)
# output 78 to 80 °C

# input # melting point lookup, item COc1cc(-c2cc3c(NCCc4cccnc4)ccnc3[nH]2)cc(OC)c1OC (as salt: hydrochloride) (hydrate or solvate)
# output 105.5 to 106.5 °C

----------
Target: IGF1R (Homo sapiens, UniProt P08069)
Construct: endogenous in cells
Experiment: Inhibition of IGF-1R (IC50): IGF1-stimulated IGF1R autophosphorylation in human tumour cells, Capture-ELISA or LUMINEX
Format: cell-based
Settings: human tumour cells expressing IGF1R (for example MCF-7 or Calu-6); 45 min pre-treatment, IGF1 stimulation 5 min; read-out: IC50 (μM), IGF1R
Method: Cultivated human tumour cells which express the IGF1 receptor (IGF1R) (for example MCF-7 or Calu-6) are stimulated using human IGF1, the natural ligand of IGF1R. […] The amount of phosphorylated IGF1R is determined by a receptor-specific Capture-ELISA or an analogous LUMINEX assay. […] As internal control, the biological activity of the ligand IGF1 is checked and a concentration series of an IGF1R reference inhibitor measured.
Assay Readout: IC50 (µM)

Example cases with answers are listed next.
>>> endpoint_value("COc1cc(-c2cc3c(NCCc4ccccn4)ccnc3[nH]2)cc(OC)c1OC")
1.4
>>> endpoint_value("C#CCCCCNc1ccnc2[nH]c(-c3ccc(OC)cc3)cc12")
9.9

[P] COc1cc(-c2cc3c(NCCc4cccnc4)ccnc3[nH]2)cc(OC)c1OC
[Q] NCCn1cc(-c2cccc(OCc3ccccc3)c2)c2cnccc21
# input Recorded IC50 values differ for P and Q ; which one is higher? Lab note: record the label of whichever item you select.
# output Q
(Q: 25 µM, P: 1.2 µM)

----------
target: IGF1R (Homo sapiens, UniProt P08069); construct: endogenous in cells; assay: Inhibition of IGF-1R (IC50): IGF1-stimulated IGF1R autophosphorylation in human tumour cells, Capture-ELISA or LUMINEX; format: cell-based; conditions: human tumour cells expressing IGF1R (for example MCF-7 or Calu-6); 45 min pre-treatment, IGF1 stimulation 5 min; read-out: concentration at which the substance inhibits the kinase IGF-1R to the extent of 50%
Assay Readout: IC50 (µM)
Lab book: enter the figure in µM, no units written.

# input # IC50 lookup, item `COc1cc(-c2cc3c(Nc4cnc5ccccc5c4)ccnc3[nH]2)cc(OC)c1OC`
# output 14

----------
target: IGF1R (Homo sapiens, UniProt P08069); construct: endogenous in cells; test: Inhibition of IGF-1R (IC50): IGF1-stimulated IGF1R autophosphorylation in human tumour cells, Capture-ELISA or LUMINEX; format: cell-based; conditions: human tumour cells expressing IGF1R (for example MCF-7 or Calu-6); 45 min pre-treatment, IGF1 stimulation 5 min; read-out: IC50 (μM), IGF1R
Assay Readout: IC50 (µM)

Example cases with answers are listed next.
>>> endpoint_value("COc1cc(-c2cc3c(Nc4cccnc4)ccnc3[nH]2)cc(OC)c1OC [Compound 2]")
0.76
>>> endpoint_value("COc1cc(-c2cc3c(Nc4cccc(F)c4)ccnc3[nH]2)cc(OC)c1OC [Compound 4]")
0.86

[a] NCC1CC(n2cc(-c3cccc(OCc4ccccc4)c3)c3c(N)nccc32)C1 (centres unmarked) [Compound 73]
[b] COc1cc(-c2cc3c(Nc4cccc(C#N)c4)ccnc3[nH]2)cc(OC)c1OC [Compound 11]
[c] NCCCCn1cc(-c2cccc(OCc3ccccc3)c2)c2c(N)nccc21 [Compound 68]
# input Order the records by IC50, with each subsequent value no larger than the one before. # format: label list in the order the request specifies
# output c, b, a
(c: 20 µM, b: 1.6 µM, a: 0.91 µM)

----------
// reported melting point per item
Counter-ions that a name gives are not always drawn.

Example cases with answers are listed next.
>>> endpoint_value("COc1cc(-c2cc3c(Nc4ccc(F)c(Cl)c4)ccnc3[nH]2)cc(OC)c1OC (as salt: hydrochloride)")
"267.5 to 269 °C"
>>> endpoint_value("Fc1ccccc1Nc1ccnc2[nH]c(-c3cccc(OCCCc4ccccc4)c3)cc12 (as salt: HCl)")
"155 to 156 °C"
>>> endpoint_value("COc1ccc(-c2cc3c(NC(=O)Nc4ccc(Cl)c(C(F)(F)F)c4)ccnc3[nH]2)cc1 (as salt: TFA)")
"141 to 142 °C"

Now for a further compound.
# input # melting point lookup, item `COc1ccc(CNc2ccnc3[nH]c(-c4cccc(OCCCc5ccccc5)c4)cc23)cc1`
# output 164 to 165 °C

----------
Counter-ions that a name gives are not always drawn.
// reported melting point per item

Example cases with answers are listed next.
>>> endpoint_value("COc1cccc(-c2c([Si](C)(C)C)[nH]c3cc(Cl)ncc23)c1")
"179 to 179.5 °C"
>>> endpoint_value("COc1ccc(-c2cc3c(N(C(=O)c4ccc(F)c(Cl)c4)C(=O)c4ccc(F)c(Cl)c4)ccnc3[nH]2)cc1 (as salt: TFA)")
"142 to 144 °C"
>>> endpoint_value("c1ccc(CCCOc2cccc(-c3cc4c(Nc5cccnc5)ccnc4[nH]3)c2)cc1 (as salt: HCl)")
"166 to 167.5 °C"
>>> endpoint_value("COc1cccc(-c2c[nH]c3cc(Cl)ncc23)c1")
"211 to 212 °C"
>>> endpoint_value("COc1cc(-c2cc3c(Nc4cccnc4)ccnc3[nH]2)cc(OC)c1OC (as salt: hydrochloride) (hydrate or solvate)")
"202 to 203 °C"

# input # melting point lookup, item `COc1ccc(-c2cc3cnccc3[nH]2)cc1`
# output 205 to 207 °C

# input # melting point lookup, item COc1cc(-c2cc3c(Nc4cnc5ccccc5c4)ccnc3[nH]2)cc(OC)c1OC (as salt: hydrochloride)
# output 227 to 228.5 °C

# input # melting point lookup, item `COc1cccc(-c2c[nH]c3ccnc(Cl)c23)c1`
# output 159.5 to 160 °C
